TARGET OF ASSAY: human SETD7 (Homo sapiens)
Sequence (Q8WTS6 whole entry): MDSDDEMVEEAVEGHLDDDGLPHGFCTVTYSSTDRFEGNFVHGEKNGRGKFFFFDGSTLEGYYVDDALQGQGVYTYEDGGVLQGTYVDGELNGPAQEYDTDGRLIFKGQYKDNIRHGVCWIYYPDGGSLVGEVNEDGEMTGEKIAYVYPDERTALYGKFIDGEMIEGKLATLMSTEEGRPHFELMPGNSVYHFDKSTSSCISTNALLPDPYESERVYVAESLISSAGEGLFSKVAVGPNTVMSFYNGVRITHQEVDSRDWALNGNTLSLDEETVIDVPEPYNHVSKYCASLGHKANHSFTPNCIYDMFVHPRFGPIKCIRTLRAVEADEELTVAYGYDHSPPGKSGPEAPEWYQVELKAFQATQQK
ASSAY REMARKS: Steady-state kinetics of SETD7-catalysed methylation
Assay type: biochemical
ASSAY CONTEXT: steady-state kinetics, relative to peptide 1
Non-standard residues stand in square brackets, D forms with d. No end group written: not given here. βAla = NCCC(=O)O
Would you mind labelling by fold increase of kcat/Km compared to linear H3K4 (1)? At or over 10 fold is satisfied, under is not satisfied.

| SUBSTANCE | CAT |
| --- | --- |
| FRTKQEARKSTGG (also: sidechain bridge or staple (positions not given here)) [Peptide 9] | not satisfied |
| [βAla]RTKQEARKSTGG (also: sidechain bridge or staple (positions not given here)) [Peptide 11] | satisfied |
| D-ARTKQEARKSTGG (sidechain bridge or staple) [Peptide 6] | satisfied |
| GRTKQEARKSTGG (also: sidechain bridge or staple (positions not given here)) [Peptide 7] | satisfied |
| VRTKQEARKSTGG (also: sidechain bridge or staple (positions not given here)) [Peptide 8] | not satisfied |
| AzaRTKQPraARKSTGG (sidechain bridge or staple) [Peptide 3] | not satisfied |
